Each record here notes measured kcat/Km (Hz/M).
molecular target: T1, Abz-LPESGK(Dnp)-CONH2
T1 chain: LPESGK

protein: eSrtA(4S-3.5) (protein) QAKPQIPKDKSKVAGYIEIPDADIKEPVYPGPATREQLNRGVSFTEENESLDDQNISITGHTFIDRPNYQFTNLKAAKKGSMVYFKVGNETRKYKMTSIRNVKPTAVEVLDEQKGKDKQLTLVTCDDYNEETGVWETRKIFVATEVK
value.reported: 154 Hz/M
--
protein: eSrtA(4S-5) (protein) QAKPQIPKDKSKVAGYIEIPDADIKEPVYPGPATREQLDRGVSFVEENESLDDQNISITGHTAIDRPNYQFTNLRAAKKGSMVYFKVGNETRKYKMTSIRNVKPTAVEVLDEQKGKDKQLTLVTCDDYNEETGVWETRKIFVATEVK
value.reported: 5130 Hz/M
--
protein: eSrtA(4S-6) (protein) QAKPQIPKDKSKVAGYIEIPDADIKEPVYPGPATREQLDRGVSFVEENESLDDQNISISGHTAIDRPNYQFTNLGAAKKGSMVYFKVGNETRKYKMTSIRNVKPTAVEVLDEQKGKDKQLTLVTCDDYNVETGVWETRKIFVATEVK
value.reported: 9390 Hz/M
--
protein: eSrtA(4S-4) (protein) QAKPQIPKDKSKVAGYIEIPDADIKEPVYPGPATREQLNRGVSFVEENESLDDQNISITGHTSIDRPNYQFTNLKAAKKGSMVYFKVGNETRKYKMTSIRNVKPTAVEVLDEQKGKDKQLTLVTCDDYNEETGVWETRKIFVATEVK
value.reported: 517 Hz/M

Please turn your attention to the following entry.
Documented kcat/Km (Hz/M) of 4S.6B (protein) QAKPQIPKDKSKVAGYIEIPDADIKEPVYPGPATREQLDRGVSFVEENESLDDQNISISGHTAIDRPNYQFTNLPAAKKGSMVYFKVGNETRKYKMTSIRNVKPTAVEVLDEQKGKDKQLTLVTCDDYNPETGVWETRKIFVATEVK : 4140 Hz/M
